# Test system: MDA-MB-231 breast
# test.method.notes: NCI tumour cell line growth inhibition, 48 h
Hi there, I'd appreciate the recorded TGI for every entry that follows.

Example results:
>  <molecule>
COCCOc1ccc(-c2nc3ccc(-c4nc5ccc(N6CCN(C)CC6)cc5[nH]4)cc3[nH]2)cc1

>  <readout.value>
6.49 µM

$$$$
>  <molecule>
[N-]=[N+]=NC(c1ccccc1)(c1ccccc1)c1ccccc1

>  <readout.value>
31.2 µM

$$$$
>  <molecule>
Nc1c(C(=O)Nc2cccc(C(F)(F)F)c2)sc2nc3c(cc12)CCCCC3

>  <readout.value>
22.7 µM

$$$$
>  <molecule>
NC(N)=Nc1ccc(CC(N)NCC(=O)O)cc1 (stereo not drawn)

>  <readout.value>
> 25 µM

$$$$
>  <molecule>
O=C(Nc1ccc(Oc2ccc(Nc3nc4ccccc4s3)cc2)cc1)Nc1ccc(Cl)c(C(F)(F)F)c1

>  <readout.value>
2.86 µM

$$$$
>  <molecule>
O=[N+]([O-])c1cc(C=NC23CC4CC(CC(C4)C2)C3)ccc1Cl

>  <readout.value>
24.7 µM

$$$$
>  <molecule>
CC(C)c1cc2c(cc1S(=O)(=O)O)[C@@]1(C)CCC[C@@](C)(C(=O)O)C1CC2 (stereo partly drawn)

>  <readout.value>
> 100 µM

$$$$
>  <molecule>
CN(C)CCNS(=O)(=O)c1ccc(N)cc1

>  <readout.value>
> 100 µM

$$$$
>  <molecule>
COc1ncc(/C=C2\OC(=O)c3ccccc32)c(OC)n1

>  <readout.value>
> 100 µM

$$$$
>  <molecule>
COc1cccc(C2SC(N)=Nc3c2c(C)nn3C(=O)c2ccccc2O)c1 (stereo not drawn)

>  <readout.value>
> 9.64 µM

$$$$

// for each molecule in input: emit TGI
1. Cc1cc(-c2nc3ccc(F)cc3s2)ccc1NC(=O)[C@H](C)N
2. O=C(O)c1ccc2c(c1C(=O)O)C(=O)OC2(c1ccc(O)cc1)c1ccc(O)cc1
3. O=C1CCCCC1CN1CCCCC1 (stereo not drawn)
4. Cn1ccc2c3c(Oc4ccc(NC(N)=O)cc4)ccnc3ccc21
5. CC(=O)/C=C/C1=C(C)CCCC1(C)CC(C)C (stereo not drawn)

1: 22.6 µM; 2: > 100 µM; 3: > 100 µM; 4: > 100 µM; 5: > 100 µM

// for each molecule in input: emit TGI
1. CC(C)=CCC(O)C1=CC(=O)c2c(O)ccc(O)c2C1=O (stereo not drawn)
2. CC(C)=CCC[C@@H](C)c1c(O)c(O)c(C)c2nccnc12
3. CC1=Nc2ccccc2OC(C)=C1N=Nc1ccc2nc(C)[nH]c2c1

1: 4.71 µM; 2: > 100 µM; 3: > 100 µM
